# target_system: T1, Human CD228 protein (human, UniProt P08582 20-708, limits assumed)
# T1 construct: Recombinant protein made in CHO cells, purified over a Ni column; The printed entry begins with the leader (MRGPSG...) and ends with ten His; also called hCD228; CD228-His protein
# T1 sequence: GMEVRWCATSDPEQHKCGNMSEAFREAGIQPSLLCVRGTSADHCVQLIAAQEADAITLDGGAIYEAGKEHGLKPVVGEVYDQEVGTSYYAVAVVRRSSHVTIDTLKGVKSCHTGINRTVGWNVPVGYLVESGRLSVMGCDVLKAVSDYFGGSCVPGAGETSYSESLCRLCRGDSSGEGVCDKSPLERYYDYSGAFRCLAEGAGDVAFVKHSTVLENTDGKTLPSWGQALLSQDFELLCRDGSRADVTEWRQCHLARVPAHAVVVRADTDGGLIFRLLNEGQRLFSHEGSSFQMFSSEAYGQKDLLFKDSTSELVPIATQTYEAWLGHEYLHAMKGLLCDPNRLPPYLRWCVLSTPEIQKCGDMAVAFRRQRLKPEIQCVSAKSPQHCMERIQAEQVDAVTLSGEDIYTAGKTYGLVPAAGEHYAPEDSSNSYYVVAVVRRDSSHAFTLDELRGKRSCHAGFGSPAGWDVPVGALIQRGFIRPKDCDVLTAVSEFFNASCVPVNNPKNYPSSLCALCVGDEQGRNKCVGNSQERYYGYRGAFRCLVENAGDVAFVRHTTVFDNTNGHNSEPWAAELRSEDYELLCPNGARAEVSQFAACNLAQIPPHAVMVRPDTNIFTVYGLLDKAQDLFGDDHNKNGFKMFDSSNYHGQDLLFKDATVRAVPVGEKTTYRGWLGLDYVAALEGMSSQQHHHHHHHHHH
# assay_text: Octet competition on His-chip CD228; competitor: BA352
value_kind: Octet response value
Quick one: just the number, no unit, thanks!

Solved entries (count: 3):
BA352 (antibody, human IgG1, kappa, V domains shown, Intact IgG1) VH: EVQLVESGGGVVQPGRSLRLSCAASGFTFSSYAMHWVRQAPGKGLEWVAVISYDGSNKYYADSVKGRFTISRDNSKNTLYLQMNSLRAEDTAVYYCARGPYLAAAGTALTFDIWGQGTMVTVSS VL: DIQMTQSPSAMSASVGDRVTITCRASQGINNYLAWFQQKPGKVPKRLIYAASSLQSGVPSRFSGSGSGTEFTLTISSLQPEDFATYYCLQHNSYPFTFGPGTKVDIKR :: 0.0217
CA185 (antibody, human IgG1, kappa, V domains shown, Intact IgG1) VH: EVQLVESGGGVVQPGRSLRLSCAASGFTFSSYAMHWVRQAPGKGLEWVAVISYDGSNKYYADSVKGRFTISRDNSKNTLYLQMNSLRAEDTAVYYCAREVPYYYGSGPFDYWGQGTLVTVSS VL: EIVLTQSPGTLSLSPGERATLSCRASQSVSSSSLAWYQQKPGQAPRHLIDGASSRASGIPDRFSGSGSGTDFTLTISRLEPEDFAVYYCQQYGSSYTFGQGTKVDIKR :: 0.459
CA518 (antibody, human IgG1, kappa, V domains shown, Intact IgG1) VH: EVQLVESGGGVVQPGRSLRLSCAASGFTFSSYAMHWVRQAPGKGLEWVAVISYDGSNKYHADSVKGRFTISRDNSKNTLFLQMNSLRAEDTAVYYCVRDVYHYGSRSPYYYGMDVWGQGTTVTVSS VL: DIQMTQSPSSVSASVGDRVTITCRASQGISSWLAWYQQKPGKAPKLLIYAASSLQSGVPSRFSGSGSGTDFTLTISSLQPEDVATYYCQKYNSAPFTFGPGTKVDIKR :: 0.415

Ask | GET /values?readout=Octet response value&item= CA67 (antibody, human IgG1, kappa, V domains shown, Intact IgG1) VH: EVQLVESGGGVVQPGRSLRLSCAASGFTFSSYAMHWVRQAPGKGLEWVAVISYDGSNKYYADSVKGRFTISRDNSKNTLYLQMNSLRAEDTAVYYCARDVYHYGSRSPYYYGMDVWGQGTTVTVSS VL: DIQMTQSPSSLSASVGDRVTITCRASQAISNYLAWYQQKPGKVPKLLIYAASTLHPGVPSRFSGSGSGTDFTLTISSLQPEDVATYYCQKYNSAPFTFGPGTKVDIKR
Reply | 0.423
